FYI, the data here is from patent US8304447B2.

Tested on: GM3
Test: GM3 Elisa assay
Assay type: cell-based
Conditions: Table 3 (IC 50 Values); B16-FO cells; read-out: IC50_uM_Mean
Measure: IC50

Below, 3 compounds whose answers are already recorded.
- Mol smiles: "COc1ccc(C(=O)CCCC(=O)N[C@H](CN2CCCC2)[C@H](O)/C=C/c2ccccc2)cc1"
  Observed: "3000 to 10000 nM"
- Mol smiles: "CCCCCCCC(=O)N[C@H](CN1CC[C@@H](O)C1)[C@H](O)c1ccc2c(c1)OCCO2"
  Observed: "1000 to 3000 nM"
- Mol smiles: "COCCOc1ccc([C@@H](O)[C@@H](CN2CCCC2)NC(=O)CCOc2ccc(OC)cc2)cc1"
  Observed: "3000 to 10000 nM"

Please give the measured IC50 for this compound: CCCCOc1ccc([C@@H](O)[C@@H](CN2CC[C@@H](F)C2)NC(=O)CCCCC(=O)C2CCCCC2)cc1
100 to 1000 nM
